Data credit: ChEMBL document CHEMBL2375225

Let's go through some recorded pIC50 values for 5-hydroxytryptamine receptor 2A (Homo sapiens, UniProt P28223) together.
Units for pIC50: none; it is -log10 of a concentration expressed in mol/L.

Data request: For Cc1[nH]c2ccc(Br)cc2c1C1=CCNCC1 , what is its reported pIC50?
Data returned: 6.40

Data request: For Cc1[nH]c2ccc(F)cc2c1C1=CCNCC1 then?
Data returned: 6.02

Data request: For C1=C(c2c(-c3ccccc3)[nH]c3ccccc23)CCNC1 then?
Data returned: 7.30

Data request: For Cc1[nH]c2ccccc2c1C1=CCNCC1 then?
Data returned: 5.82

Data request: For Cc1[nH]c2ccc([N+](=O)[O-])cc2c1C1=CCNCC1 then?
Data returned: 6.00
